system_tested: ATP-binding cassette sub-family B member 6 (Homo sapiens) (UniProt Q9NP58)
Sequence (Q9NP58 whole entry, looked up): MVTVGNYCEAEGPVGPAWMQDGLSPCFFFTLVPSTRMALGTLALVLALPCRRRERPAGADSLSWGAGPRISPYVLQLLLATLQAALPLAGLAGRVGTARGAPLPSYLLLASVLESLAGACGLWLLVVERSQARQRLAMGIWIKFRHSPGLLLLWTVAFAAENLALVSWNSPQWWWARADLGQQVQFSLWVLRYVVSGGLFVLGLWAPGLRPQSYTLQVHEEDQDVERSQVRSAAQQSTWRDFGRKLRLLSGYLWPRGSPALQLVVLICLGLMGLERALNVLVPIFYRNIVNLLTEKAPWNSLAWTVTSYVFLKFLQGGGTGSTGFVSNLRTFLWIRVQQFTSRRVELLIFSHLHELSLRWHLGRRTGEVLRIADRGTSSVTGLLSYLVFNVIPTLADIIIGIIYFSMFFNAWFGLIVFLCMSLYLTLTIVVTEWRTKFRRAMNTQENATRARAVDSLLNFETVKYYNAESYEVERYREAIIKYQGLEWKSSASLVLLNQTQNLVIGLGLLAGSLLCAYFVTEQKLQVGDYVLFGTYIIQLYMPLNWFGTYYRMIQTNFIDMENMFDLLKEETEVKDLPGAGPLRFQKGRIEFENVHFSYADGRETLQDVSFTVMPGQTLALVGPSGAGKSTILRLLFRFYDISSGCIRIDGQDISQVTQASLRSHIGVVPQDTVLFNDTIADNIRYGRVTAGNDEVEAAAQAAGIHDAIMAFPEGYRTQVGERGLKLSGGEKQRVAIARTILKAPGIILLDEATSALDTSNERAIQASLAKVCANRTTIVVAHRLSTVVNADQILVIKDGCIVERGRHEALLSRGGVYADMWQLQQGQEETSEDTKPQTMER
experiment_description: ABCB6 transporter inhibitors, primary screen, K562-ABCB6 cells, flow cytometry, MLPCN library (AID 602162);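 note: signal is porphyrin accumulated inside mitochondria; lower ratio means ABCB6 inhibition with less porphyrin fluorescence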
test_conditions: K562-ABCB6 porphyrin accumulation, 1 h, at 10 µM
The whole screen tested about 360,000 compounds, of which about 690 (0.19%) were called active.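 Rule for the calls: active = fluorescence ratio to DMSO below 75%, the collection mean minus 3 SD; inconclusive = too few cells collected in the well; inactive = the rest.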 This is one part of a sample in which actives are shown more often than they occur.
Pick one and only one: true for active, false for inactive

Could you please tell me the result logged for COc1ccc(CNC(=O)COC(=O)c2c(C)nn(-c3ccccc3)c2C)cc1OC in this assay?
false

Could you please tell me the result logged for OCCC1CN(Cc2cnc(-c3ccccc3)s2)CCN1CCc1ccccc1 (centres undefined) in this assay?
true

Could you please tell me the result logged for COc1ccc(CCNS(=O)(=O)c2ccc(C(=O)NCc3ccco3)cc2)cc1OC in this assay?
false

Could you please tell me the result logged for CS(=O)(=O)N1CCC(C(=O)N2CCN(c3ccccc3)CC2)CC1 in this assay?
false

Source listed as PubChem BioAssay AID602162.
